Target: T1, human C1s (human, UniProt P09871 16-688)
T1 construct: also called hC1s; serum-derived human C1s (CompTech)
T1 sequence: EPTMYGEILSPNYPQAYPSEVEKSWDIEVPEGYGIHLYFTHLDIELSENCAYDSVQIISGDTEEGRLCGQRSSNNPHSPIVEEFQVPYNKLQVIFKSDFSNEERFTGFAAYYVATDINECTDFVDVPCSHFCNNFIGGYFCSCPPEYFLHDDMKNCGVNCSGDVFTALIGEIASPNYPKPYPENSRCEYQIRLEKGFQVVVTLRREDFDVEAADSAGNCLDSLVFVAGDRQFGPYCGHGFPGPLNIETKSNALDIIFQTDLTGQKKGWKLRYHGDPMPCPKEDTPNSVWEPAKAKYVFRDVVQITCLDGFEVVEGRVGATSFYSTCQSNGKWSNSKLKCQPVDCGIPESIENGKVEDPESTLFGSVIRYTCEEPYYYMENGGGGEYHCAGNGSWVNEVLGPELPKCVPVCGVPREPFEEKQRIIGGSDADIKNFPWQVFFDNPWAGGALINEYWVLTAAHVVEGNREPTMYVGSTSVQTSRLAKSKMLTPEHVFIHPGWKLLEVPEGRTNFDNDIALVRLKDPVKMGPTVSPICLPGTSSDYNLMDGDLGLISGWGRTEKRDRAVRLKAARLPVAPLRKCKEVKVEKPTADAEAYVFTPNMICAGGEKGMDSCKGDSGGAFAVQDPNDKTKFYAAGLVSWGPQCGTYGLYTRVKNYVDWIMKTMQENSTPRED
Experiment: SPR, Ab captured; pH 7.4, 1.2 mM Ca
Endpoint: pKd
Just the number, please; pKd means minus log10 of the concentration in mol/L.

Solved cases (5 shown):
Query: Note pKd for the binder shown: C1_IPN92H0033-SG4GK/IPN93L0029-SK1 (antibody, human IgG4 S228P, kappa, name in Kabat numbering, V domains shown, also called IPN92H0033/IPN93L0029) VH: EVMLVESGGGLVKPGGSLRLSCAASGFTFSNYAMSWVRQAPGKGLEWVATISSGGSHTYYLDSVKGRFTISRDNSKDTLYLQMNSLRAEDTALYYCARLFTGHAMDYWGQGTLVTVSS VL: QIVLTQSPATLSLSPGERATLSCTASSSVSSSYLHWYQQKPGKAPKLWIYSTSNLASGVPSRFSGSGSGTDYTLTISSLQPEDFATYYCHQYHRLHPITFGQGTKLEIKR
Response: 7.81

Query: Note pKd for the binder shown: C1_IPN92H0038-SG4GK/IPN93L0023-SK1 (antibody, human IgG4 S228P, kappa, name in Kabat numbering, V domains shown, also called IPN92H0038/IPN93L0023) VH: EVMLVESGGGLVKPGGSLRLSCAASGFTFSNYAMSWVRQAPGKGLEWVATISSGGSHTYYLDSVKHRFTISRDNSKDTLYLQMNSLRAEDTALYYCARLFTGHAMDYWGQGTLVTVSS VL: QIVLTQSPATLSLSPGERATLSCTASSSVSSSYLHWYQQKPGKAPKLWIYSTSNLASGVPSRFSGSGSGTDYTLTISSLQPEDFATYYCHQYYRHPPITFGQGTKLEIKR
Response: 8.72

Query: Note pKd for the binder shown: C1_IPN92H0033-SG4GK/IPN93L0030-SK1 (antibody, human IgG4 S228P, kappa, name in Kabat numbering, V domains shown, also called IPN92H0033/IPN93L0030) VH: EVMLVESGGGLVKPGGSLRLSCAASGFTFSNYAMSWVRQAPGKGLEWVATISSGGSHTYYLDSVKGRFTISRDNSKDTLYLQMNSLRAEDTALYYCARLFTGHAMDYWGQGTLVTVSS VL: QIVLTQSPATLSLSPGERATLSCTASSSVSSSYLHWYQQKPGKAPKLWIYSTSNLASGVPSRFSGSGSGTDYTLTISSLQPEDFATYYCHQYYRHHPITFGQGTKLEIKR
Response: 7.62

Query: Note pKd for the binder shown: C1_IPN92H0033-SG4GK/IPN93L0028-SK1 (antibody, human IgG4 S228P, kappa, name in Kabat numbering, V domains shown, also called IPN92H0033/IPN93L0028) VH: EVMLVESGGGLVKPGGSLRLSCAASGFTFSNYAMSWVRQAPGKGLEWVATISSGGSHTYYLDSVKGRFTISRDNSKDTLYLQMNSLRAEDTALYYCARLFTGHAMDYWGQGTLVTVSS VL: QIVLTQSPATLSLSPGERATLSCTASSSVSSSYLHWYQQKPGKAPKLWIYSTSNLASGVPSRFSGSGSGTDYTLTISSLQPEDFATYYCHQYHRHPPITFGQGTKLEIKR
Response: 8.19

Query: Note pKd for the binder shown: C1_IPN92H0038-SG4GK/IPN93L0029-SK1 (antibody, human IgG4 S228P, kappa, name in Kabat numbering, V domains shown, also called IPN92H0038/IPN93L0029) VH: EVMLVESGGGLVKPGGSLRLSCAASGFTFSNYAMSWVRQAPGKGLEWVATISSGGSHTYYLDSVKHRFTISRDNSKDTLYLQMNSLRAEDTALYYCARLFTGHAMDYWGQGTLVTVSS VL: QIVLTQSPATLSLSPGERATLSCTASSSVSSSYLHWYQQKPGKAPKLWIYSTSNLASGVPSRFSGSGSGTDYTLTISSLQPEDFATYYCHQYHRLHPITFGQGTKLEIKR
Response: 8.15

Others:
Query: Note pKd for the binder shown: C1_IPN92H0038-SG4GK/IPN93L0031-SK1 (antibody, human IgG4 S228P, kappa, name in Kabat numbering, V domains shown, also called IPN92H0038/IPN93L0031) VH: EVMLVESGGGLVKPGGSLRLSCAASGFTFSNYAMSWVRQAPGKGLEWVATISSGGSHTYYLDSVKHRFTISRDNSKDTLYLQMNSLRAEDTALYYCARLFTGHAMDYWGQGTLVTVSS VL: QIVLTQSPATLSLSPGERATLSCTASSSVSSSYLHWYQQKPGKAPKLWIYSTSNLASGVPSRFSGSGSGTDYTLTISSLQPEDFATYYCHQYHRHHPITFGQGTKLEIKR
Response: 8.28

Query: Note pKd for the binder shown: C1_IPN92H0026-SG4GK/IPN93L0031-SK1 (antibody, human IgG4 S228P, kappa, name in Kabat numbering, V domains shown, also called IPN92H0026/IPN93L0031) VH: EVMLVESGGGLVKPGGSLRLSCAASGFTFSNYAMSWVRQAPGKGLEWVATISSGGSHTYYLDSVKHRFTISRDNSKDTLYLQMNSLRAEDTALYYCARLFTGYAMDYWGQGTLVTVSS VL: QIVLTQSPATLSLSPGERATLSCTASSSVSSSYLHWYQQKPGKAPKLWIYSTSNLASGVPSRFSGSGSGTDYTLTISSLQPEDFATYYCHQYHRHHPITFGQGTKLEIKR
Response: 6.16

Query: Note pKd for the binder shown: C1_IPN92H0038-SG4GK/IPN009VK3-SK1 (antibody, human IgG4 S228P, kappa, name in Kabat numbering, V domains shown, also called IPN92H0038/IPN009VK3) VH: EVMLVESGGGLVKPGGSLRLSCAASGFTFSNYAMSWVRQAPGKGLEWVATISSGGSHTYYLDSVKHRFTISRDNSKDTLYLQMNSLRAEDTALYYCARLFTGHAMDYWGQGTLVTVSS VL: QIVLTQSPATLSLSPGERATLSCTASSSVSSSYLHWYQQKPGKAPKLWIYSTSNLASGVPSRFSGSGSGTDYTLTISSLQPEDFATYYCHQYYRLPPITFGQGTKLEIKR
Response: 9.17

Query: Note pKd for the binder shown: C1_IPN92H0026-SG4GK/IPN93L0030-SK1 (antibody, human IgG4 S228P, kappa, name in Kabat numbering, V domains shown, also called IPN92H0026/IPN93L0030) VH: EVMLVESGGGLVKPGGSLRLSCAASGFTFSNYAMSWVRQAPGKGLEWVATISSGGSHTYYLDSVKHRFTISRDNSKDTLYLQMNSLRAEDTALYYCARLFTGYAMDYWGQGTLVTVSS VL: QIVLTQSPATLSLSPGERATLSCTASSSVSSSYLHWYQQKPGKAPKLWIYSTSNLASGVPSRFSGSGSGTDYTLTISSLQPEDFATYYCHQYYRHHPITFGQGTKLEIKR
Response: 7.61

Query: Note pKd for the binder shown: C1_IPN92H0038-SG4GK/IPN93L0021-SK1 (antibody, human IgG4 S228P, kappa, name in Kabat numbering, V domains shown, also called IPN92H0038/IPN93L0021) VH: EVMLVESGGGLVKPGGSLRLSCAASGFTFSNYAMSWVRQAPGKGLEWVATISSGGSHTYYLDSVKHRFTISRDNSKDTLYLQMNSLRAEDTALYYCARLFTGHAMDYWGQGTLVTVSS VL: QIVLTQSPATLSLSPGERATLSCTASSSVSSSYLHWYQQKPGKAPKLWIYSTSNLASGVPSRFSGSGSGTDYTLTISSLQPEDFATYYCHQYHRLPPITFGQGTKLEIKR
Response: 9.02
